These entries and their values trace back to patent US20250145564A1.

# pIC50 per record follows
target: sEH (human recombinant) (Homo sapiens)
Sequence (P34913 whole entry): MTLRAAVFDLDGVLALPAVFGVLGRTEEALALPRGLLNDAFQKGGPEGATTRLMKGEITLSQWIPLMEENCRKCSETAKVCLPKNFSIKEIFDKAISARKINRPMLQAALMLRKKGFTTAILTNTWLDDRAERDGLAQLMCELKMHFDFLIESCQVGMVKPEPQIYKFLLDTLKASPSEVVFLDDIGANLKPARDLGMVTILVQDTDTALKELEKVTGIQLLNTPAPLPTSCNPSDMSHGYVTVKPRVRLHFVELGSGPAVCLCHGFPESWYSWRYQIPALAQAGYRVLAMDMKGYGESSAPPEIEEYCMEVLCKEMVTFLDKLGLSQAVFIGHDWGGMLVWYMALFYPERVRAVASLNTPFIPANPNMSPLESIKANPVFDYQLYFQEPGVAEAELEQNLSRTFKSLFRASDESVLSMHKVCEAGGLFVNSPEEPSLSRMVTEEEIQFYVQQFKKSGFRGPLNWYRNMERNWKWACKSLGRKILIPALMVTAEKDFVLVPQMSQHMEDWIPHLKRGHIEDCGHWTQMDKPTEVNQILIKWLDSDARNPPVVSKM
method: sEH inhibition assay (fluorescence);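 further: enzyme preincubated with compound 30 min at 25 °C, then substrate added and fluorescence read after 15 min at 25 °C, 320 nm and 460 nm, versus DMSO negative control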
pIC50: −log10 of the molar value.

INSERT INTO results (chemicalstructure, observedproperty, assayvalue) VALUES
  ('CCC1=C(C)CN(C(=O)NCCc2ccc(S(=O)(=O)NC(=O)N[C@H]3CC[C@H](COC)CC3)cc2)C1=O', 'pIC50', '6.00 to 6.70'),
  ('CCC1=C(C)CN(C(=O)NCCc2ccc(S(=O)(=O)N(CC)C(=O)N[C@H]3CC[C@H](C)CC3)cc2)C1=O', 'pIC50', '5.00 to 6.00'),
  ('Cc1cc(C(=O)NCCc2ccc(S(=O)(=O)N(C)C(=O)NN3CCCCCC3)cc2)no1', 'pIC50', '5.00 to 6.00');

Ask: Please give the measured pIC50 for this molecule: Cc1ccc(S(=O)(=O)N(C)C(=O)NN2CCCCCC2)cc1
Reply: 5.00 to 6.00

Ask: Please give the measured pIC50 for this molecule: CCC1=C(C)CN(C(=O)NCCc2ccc(S(=O)(=O)N(C)C(=O)N[C@H]3CC[C@H](C)CC3)cc2)C1=O
Reply: 5.00 to 6.00
